Provenance of the data: patent US8835440B2

Parameter: remaining activity at 10 µM. Scope: all listed entries.
Molecular target: CCR2 (Homo sapiens)
Construct: Membranes were prepared from THP-1 cells; endogenous in cells; host or cells: THP-1 cells (membrane preparation)
Experiment: CCR2 receptor membrane binding assay ([125I]MCP-1, THP-1 cell membranes, SPA beads)
Settings: @ 10 μM test compound; THP-1 membranes; read-out: CCR2 % ctrl @ 10 μM
Your answer is read as %, so omit the unit and give the number.

Below are worked cases with known answers.
[
  {
    "compound": "Cc1c(NCCc2ccc(C(C)(C)C)cc2)ncnc1C(=O)N1CCC(N2CCC(O)CC2)CC1",
    "targetDesc": "CCR2 (Homo sapiens)",
    "observationType": "remaining activity at 10 µM",
    "units": "%",
    "result": 21
  },
  {
    "compound": "Cc1c(NCCc2ccc(Cl)c(Cl)c2)ncnc1C(=O)N1CCC(N2CCOC(c3ccccc3)C2)CC1 (stereo not shown)",
    "targetDesc": "CCR2 (Homo sapiens)",
    "observationType": "remaining activity at 10 µM",
    "units": "%",
    "result": 7
  },
  {
    "compound": "Cc1c(NCC2Cc3ccccc3C2)ncnc1C(=O)N1CCC(N2CCOCC2)CC1",
    "targetDesc": "CCR2 (Homo sapiens)",
    "observationType": "remaining activity at 10 µM",
    "units": "%",
    "result": 12
  }
]

**Query** Return reported remaining activity at 10 µM. Input compound: Cc1c(NCc2cccc(-c3ccccc3)c2)ncnc1C(=O)N1CCC(N2CCCOCC2)CC1
**Result** 40

**Query** Return remaining activity at 10 µM for the following compound: CCS(=O)(=O)N(C)C1CCN(C2CCN(C(=O)c3ncnc(NC[C@@H]4C[C@H]4c4ccccc4)c3C)CC2)CC1
**Result** 8

**Query** For the compound Cc1c(NCC2CCCC(c3ccccc3)C2)ncnc1C(=O)N1CCC(N2CCCCC2)CC1 (stereo not shown) , give its measured remaining activity at 10 µM value.
**Result** 6

**Query** Quickly give me recorded remaining activity at 10 µM for Cc1c(NCc2ccc(C(C)(C)C)cc2)ncnc1C(=O)N1CCC(N(C)C2CCCOC2)CC1 (stereo not shown) [Example 228a]
**Result** 9

----------
Molecular target: CCR2 (Homo sapiens, UniProt P41597)
Construct: Membranes were prepared from THP-1 cells; endogenous in cells; host or cells: THP-1 cells (membrane preparation)
Sequence (P41597 1-360 isoform P41597-2): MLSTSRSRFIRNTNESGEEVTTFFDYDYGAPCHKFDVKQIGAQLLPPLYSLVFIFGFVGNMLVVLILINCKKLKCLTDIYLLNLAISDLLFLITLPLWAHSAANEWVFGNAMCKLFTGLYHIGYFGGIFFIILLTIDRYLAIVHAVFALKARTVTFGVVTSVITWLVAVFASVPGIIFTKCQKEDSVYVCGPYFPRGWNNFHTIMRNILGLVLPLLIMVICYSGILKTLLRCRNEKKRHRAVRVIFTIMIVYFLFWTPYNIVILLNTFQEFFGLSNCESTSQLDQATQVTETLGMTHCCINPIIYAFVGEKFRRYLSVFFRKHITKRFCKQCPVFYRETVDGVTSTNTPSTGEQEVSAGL
Experiment: CCR2 receptor membrane binding assay ([125I]MCP-1, THP-1 cell membranes, SPA beads)
Settings: @ 10 μM test compound; THP-1 membranes; read-out: CCR2 % ctrl @ 10 μM
The reader will find reported remaining activity at 10 µM values listed item by item below.
The reply should contain only the number, in %.

Example entries begin here.
[
  {
    "compound": "COC1COCCC1NC1CCN(C(=O)c2ncnc(NCc3ccc(C(C)(C)C)cc3)c2C)CC1 (stereo not shown) [Example 228c]",
    "result": 0
  },
  {
    "compound": "Cc1c(NCc2ccc(Cl)c(F)c2)ncnc1C(=O)N1CCC(N2CCC(O)CC2)CC1",
    "result": 19
  },
  {
    "compound": "CCN(C1CCN(C2CCN(C(=O)c3ncnc(NCCc4ccc(Cl)c(Cl)c4)c3C)CC2)CC1)S(C)(=O)=O",
    "result": 0
  }
]

# evaluate next
**Query** Tell me remaining activity at 10 µM reported for Cc1c(NCCc2ccc(Cl)c(Cl)c2)ncnc1C(=O)N1CCC(C(N)=O)(N2CCCCC2)CC1
**Result** 6

----------
Molecular target: CCR2 (Homo sapiens)
Construct: Membranes were prepared from THP-1 cells; endogenous in cells; host or cells: THP-1 cells (membrane preparation)
Assay: CCR2 receptor membrane binding assay ([125I]MCP-1, THP-1 cell membranes, SPA beads)
Conditions: @ 10 μM test compound; THP-1 membranes; read-out: CCR2 % ctrl @ 10 μM
Parameter remaining activity at 10 µM: see the listing below.
Field: numeric (%). Do not append units.

[
  {
    "molecule": "Cc1c(NCc2ccc(C(C)(C)C)cc2)ncnc1C(=O)N1CCC(N2CCC(C#N)CC2)CC1",
    "remaining activity at 10 µM (%)": 7
  },
  {
    "molecule": "CC(=O)N1CCN(C2CCN(C(=O)c3ncnc(NCCc4ccc(Cl)c(Cl)c4)c3C)CC2)CC1",
    "remaining activity at 10 µM (%)": 45
  }
]

**Query** Name the value of remaining activity at 10 µM reported for Cc1c(NCCc2ccc(Cl)c(Cl)c2)ncnc1C(=O)N1CCC(N2CCOCC2)CC1 when tested on CCR2 (Homo sapiens).
**Result** 9

**Query** Fill in remaining activity at 10 µM for O=C(c1ncnc(NCc2cccc(-c3ccccc3)c2)c1Br)N1CCC(N2CCC(O)CC2)CC1 tested with CCR2 (Homo sapiens).
**Result** 32

**Query** GET remaining activity at 10 µM | system: CCR2 (Homo sapiens) | item: Cc1nc(NCc2ccc(C(C)(C)C)cc2)c(C)c(C(=O)N2CCC(N3CCC(N(C)S(C)(=O)=O)CC3)CC2)n1
**Result** 3

**Query** Would you please give the reported remaining activity at 10 µM of Cc1c(NCc2cccc(Cl)c2)ncnc1C(=O)N1CCC(N2CCCCC2)CC1 with CCR2 (Homo sapiens)?
**Result** 16

**Query** Enter measured remaining activity at 10 µM, system CCR2 (Homo sapiens), for the molecule shown: CNC(=O)C1CCN(C2CCN(C(=O)c3ncnc(OCc4ccc(C(C)(C)C)cc4)c3C)CC2)CC1
**Result** 8

**Query** GET remaining activity at 10 µM where system = CCR2 (Homo sapiens) and item = Cc1c(NC[C@H]2CCN(c3ccccc3)C2)ncnc1C(=O)N1CCC(N2CCC(N(C)S(C)(=O)=O)CC2)CC1
**Result** 8

**Query** Find the measured remaining activity at 10 µM of Cc1c(NCC2CCC(C(F)(F)F)CC2)ncnc1C(=O)N1CCC(N2CCC(O)CC2)CC1 (stereo not drawn) with CCR2 (Homo sapiens) as test system.
**Result** 42

**Query** Report value: remaining activity at 10 µM, system: CCR2 (Homo sapiens), molecule: CNC(=O)C1CN(C2CCN(C(=O)c3ncnc(NCc4ccc(Cl)c(Cl)c4)c3C)CC2)C1
**Result** 35

**Query** Answer briefly: remaining activity at 10 µM recorded on CCR2 (Homo sapiens) for Cc1c(NCC2Cc3ccccc3C2)ncnc1C(=O)N1CCC(N2CCC(NS(C)(=O)=O)CC2)CC1
**Result** 2

**Query** // fetch remaining activity at 10 µM; item: Cc1c(NCc2ccc(Cl)c(Cl)c2)ncnc1C(=O)N1CCC(N2CCCCCC2)CC1 ; system: CCR2 (Homo sapiens)
**Result** 26

**Query** Specify remaining activity at 10 µM for Cc1c(NCCc2ccc(Cl)c(Cl)c2)ncnc1C(=O)N1CCC(N2CCCC2)CC1 , system CCR2 (Homo sapiens).
**Result** 17

**Query** // fetch remaining activity at 10 µM for Cc1c(/C=C/c2ccc(C(C)(C)C)cc2)ncnc1C(=O)N1CCC(N2CCOCC2)CC1 ; system: CCR2 (Homo sapiens)
**Result** 15

**Query** # lookup: CCR2 (Homo sapiens) remaining activity at 10 µM, key = Cc1c(NCCc2ccc(C(C)(C)C)cc2)ncnc1C(=O)N1CCC(N2CCCCC2)CC1
**Result** 21

**Query** Look up and report remaining activity at 10 µM, with CCR2 (Homo sapiens) as system, for CCS(=O)(=O)N(C)C1CCN(C2CCN(C(=O)c3ncnc(NCC4CCCN(c5ccccc5)C4)c3C)CC2)CC1 (stereo not drawn)
**Result** 13

**Query** With CCR2 (Homo sapiens) as the test system, provide measured remaining activity at 10 µM for this molecule: Cc1c(NCCc2ccc(OC(F)(F)F)cc2)ncnc1C(=O)N1CCC(N2CCC(NS(C)(=O)=O)CC2)CC1
**Result** 6

**Query** Give remaining activity at 10 µM for this entry on CCR2 (Homo sapiens): CCS(=O)(=O)N(C)C1CCN(C2CCN(C(=O)c3ncnc(NCc4ccc(Cl)c(F)c4)c3C)CC2)CC1
**Result** 2

**Query** Quote remaining activity at 10 µM with test system CCR2 (Homo sapiens) for Cc1c(NCCc2ccc(Cl)c(Cl)c2)ncnc1C(=O)N1CCC(N2CCC(F)(F)CC2)CC1
**Result** 15

**Query** Recall the reported remaining activity at 10 µM of Cc1c(OCc2ccc(C(C)(C)C)cc2)ncnc1C(=O)N1CCC(N2CCC(N(C)S(C)(=O)=O)CC2)CC1 when tested on CCR2 (Homo sapiens).
**Result** 3

**Query** System CCR2 (Homo sapiens). Read-out remaining activity at 10 µM. Item Cc1c(C(=O)N2CCC(N3CCC(N(C)S(C)(=O)=O)CC3)CC2)ncnc1-c1ccc(C(C)(C)C)cc1 . Report value.
**Result** 34

**Query** Provide remaining activity at 10 µM, tested on CCR2 (Homo sapiens), for Cc1c(NCc2ccc(C(C)(C)C)cc2)ncnc1C(=O)N1CCC(N(C)C2CC(C)OC(C)C2)CC1 (stereo not drawn) [Example 275c] .
**Result** 38

**Query** Give remaining activity at 10 µM only, for CCS(=O)(=O)NC1CCN(C2CCN(C(=O)c3ncnc(NCc4ccc(Cl)c(Cl)c4)c3C)CC2)CC1 , using CCR2 (Homo sapiens) data.
**Result** 14

**Query** State, for CCR2 (Homo sapiens), measured remaining activity at 10 µM of the molecule listed here: Cc1c(NCC2CCN(c3ccccc3)C2)ncnc1C(=O)N1CCC(N2CCC(N(C)S(C)(=O)=O)CC2)CC1 (stereo not drawn)
**Result** 5
